# measuredTarget: recombinant human TDP1 (Homo sapiens, UniProt Q9NUW8)
# Sequence (Q9NUW8 whole entry): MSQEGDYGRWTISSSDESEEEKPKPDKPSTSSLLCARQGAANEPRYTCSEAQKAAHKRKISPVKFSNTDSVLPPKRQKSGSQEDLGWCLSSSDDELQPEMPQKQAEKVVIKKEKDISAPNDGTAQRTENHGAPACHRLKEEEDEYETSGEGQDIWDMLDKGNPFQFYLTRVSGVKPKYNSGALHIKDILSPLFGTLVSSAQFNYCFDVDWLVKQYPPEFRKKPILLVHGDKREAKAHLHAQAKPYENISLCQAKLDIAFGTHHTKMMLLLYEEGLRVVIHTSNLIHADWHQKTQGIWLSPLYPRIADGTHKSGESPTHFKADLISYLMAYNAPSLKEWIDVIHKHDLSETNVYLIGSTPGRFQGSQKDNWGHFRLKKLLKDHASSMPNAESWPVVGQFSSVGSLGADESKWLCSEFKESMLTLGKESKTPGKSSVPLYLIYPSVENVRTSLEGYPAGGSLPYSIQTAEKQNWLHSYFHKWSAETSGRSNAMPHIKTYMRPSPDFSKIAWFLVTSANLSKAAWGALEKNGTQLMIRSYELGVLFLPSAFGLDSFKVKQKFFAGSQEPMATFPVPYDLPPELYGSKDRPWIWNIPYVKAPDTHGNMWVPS
# testDescription: TDP1 gel-based inhibition assay
# Format: biochemical
# assayConditions: read-out: IC50 (μM) for TDP1; gel-based assay; Table 2
observationType: IC50

# compound `CCN(CC)CCOc1cc2cc3c(cc2c2c1c1cc(OC)c(OC)cc1c(=O)n2C)OCO3` ; its IC50 = > 111 µM

* * *

# System: HCT-116 cells
# testDescription: MTT cytotoxicity assay, HCT-116
# Assay type: cell-based, human
# assayConditions: Homo sapiens, HCT-116, 72 h, read-out: GI50 ± SD (μM) HCT-116
Kindly supply the reported GI50 values for the records listed here.
Numbers only, in µM.

As a guide, the following entries are already answered.
structureNotation: COc1cc2c(=O)n(C)c3c4cc5c(cc4cc(OCCCN4CCOCC4)c3c2cc1OC)OCO5
readoutNumber: 3.3
//
structureNotation: COc1cc2c(=O)n(C)c3c4cc5c(cc4c(OCCn4ccnc4)cc3c2cc1OC)OCO5
readoutNumber: 2.9

Field: GI50. Fill in for each record below.
1. COc1cc2c(=O)n(C)c3c4cc5c(cc4cc(OCCCn4ccnc4)c3c2cc1OC)OCO5
2. COc1cc2c(=O)n(C)c3c4cc5c(cc4cc(OCCCN(C)C)c3c2cc1OC)OCO5
3. CNCCCOc1cc2c3cc(OC)c(OC)cc3c(=O)n(C)c2c2cc3c(cc12)OCO3
4. COc1cc2c(=O)n(C)c3c4cc5c(cc4cc(OCCCO)c3c2cc1OC)OCO5

Given back:
[10, 0.55, 12, 38]

* * *

# measuredTarget: recombinant TOP1 (Homo sapiens)
# testDescription: TOP1-mediated DNA cleavage assay
# Assay type: biochemical
# assayConditions: TOP1 cleavage inhibitory activity, semiquantitative relative to CPT at 1 μM; Table 2
observationType: TOP1 Inhibition

For every listed record, write down its TOP1 Inhibition.
1. COc1cc2c(=O)n(C)c3c4cc5c(cc4cc(OCCCn4ccnc4)c3c2cc1OC)OCO5 [Compound 44]
2. COc1cc2c(=O)n(C)c3c4cc5c(cc4cc(OCCCN4CCN(c6cccc(C(F)(F)F)c6)CC4)c3c2cc1OC)OCO5 [Compound 45]
3. CCN(CC)CCOc1cc2cc3c(cc2c2c1c1cc(OC)c(OC)cc1c(=O)n2C)OCO3 [Compound 36]
4. COc1cc2c(=O)n(C)c3c4cc5c(cc4cc(OCCCN(C)C)c3c2cc1OC)OCO5 [Compound 35]

Given back:
1: 0/+ (0/+, less than 20%); 2: 0; 3: 0; 4: 0

* * *

Assign TOP1 Inhibition to each entry below.
# measuredTarget: recombinant TOP1 (Homo sapiens, UniProt P11387)
# Sequence (P11387 whole entry): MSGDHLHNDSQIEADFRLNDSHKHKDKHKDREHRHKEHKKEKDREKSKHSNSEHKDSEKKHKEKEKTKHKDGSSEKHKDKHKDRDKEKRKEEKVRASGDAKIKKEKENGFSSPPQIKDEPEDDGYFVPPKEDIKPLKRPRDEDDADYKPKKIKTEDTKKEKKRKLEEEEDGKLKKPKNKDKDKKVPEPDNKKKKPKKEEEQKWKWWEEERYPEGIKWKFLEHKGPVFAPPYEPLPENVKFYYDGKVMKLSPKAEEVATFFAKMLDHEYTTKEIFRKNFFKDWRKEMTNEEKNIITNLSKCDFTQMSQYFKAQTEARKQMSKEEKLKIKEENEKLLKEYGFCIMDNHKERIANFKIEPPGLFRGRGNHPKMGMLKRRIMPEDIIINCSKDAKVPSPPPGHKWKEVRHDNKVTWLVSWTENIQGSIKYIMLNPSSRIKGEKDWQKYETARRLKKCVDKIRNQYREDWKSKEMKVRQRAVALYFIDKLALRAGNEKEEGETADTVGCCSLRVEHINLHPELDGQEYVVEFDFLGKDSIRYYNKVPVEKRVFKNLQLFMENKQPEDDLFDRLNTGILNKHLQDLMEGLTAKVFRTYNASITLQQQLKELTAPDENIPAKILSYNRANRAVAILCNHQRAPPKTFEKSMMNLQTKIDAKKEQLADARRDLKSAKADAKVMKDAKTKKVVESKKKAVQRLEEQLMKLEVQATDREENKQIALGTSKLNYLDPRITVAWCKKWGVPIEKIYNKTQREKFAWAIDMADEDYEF
# testDescription: TOP1-mediated DNA cleavage assay
# Assay type: biochemical
# assayConditions: TOP1 cleavage inhibitory activity, semiquantitative relative to CPT at 1 μM; Table 1

structureNotation: COc1cc2c(=O)n(C)c3c4cc5c(cc4c(OCCCn4ccnc4)cc3c2cc1OC)OCO5
TOP1 Inhibition: 0
//
structureNotation: CCOC(=O)COc1cc2c3cc(OC)c(OC)cc3c(=O)n(C)c2c2cc3c(cc12)OCO3
TOP1 Inhibition: 0

# ---- query compound ----
The compound listed as `COc1cc2c(=O)n(C)c3c4cc5c(cc4c(O)cc3c2cc1OC)OCO5` has a reported TOP1 Inhibition of 0

* * *

# Test system: HCT-116 cells
# testDescription: MTT cytotoxicity assay, HCT-116
# Format: cell-based, human
# assayConditions: Homo sapiens, HCT-116, 72 h, read-out: GI50 ± SD (μM) HCT-116
So I've got a bunch of compounds here, and I need their GI50 values.

structureNotation: COc1cc2c(=O)n(C)c3c4cc5c(cc4c(OCCN4CCCCC4)cc3c2cc1OC)OCO5
GI50: > 100 µM
--
structureNotation: CCOC(=O)COc1cc2c3cc(OC)c(OC)cc3c(=O)n(C)c2c2cc3c(cc12)OCO3
GI50: > 100 µM

Test item `COc1cc2c(=O)n(C)c3c4cc5c(cc4cc(O)c3c2cc1OC)OCO5` ; HCT-116 cells; reported GI50 was > 100 µM

* * *

# measuredTarget: recombinant human TDP1 (Homo sapiens, UniProt Q9NUW8)
# testDescription: TDP1 gel-based inhibition assay
# Type: biochemical
observationType: IC50

Record excerpt, results attached:
compound: COc1cc2c(=O)n(C)c3c4cc5c(cc4cc(OCCN4CCCC4)c3c2cc1OC)OCO5 [Compound 38]
measuredTarget: recombinant human TDP1 (Homo sapiens, UniProt Q9NUW8)
IC50: 37 to 111 µM

compound: COc1cc2c(=O)n(C)c3c4cc5c(cc4cc(OCCCN4CCN(c6cccc(C(F)(F)F)c6)CC4)c3c2cc1OC)OCO5 [Compound 45]
measuredTarget: recombinant human TDP1 (Homo sapiens, UniProt Q9NUW8)
IC50: > 111 µM

compound: COc1cc2c(=O)n(C)c3c4cc5c(cc4c(OCCn4ccnc4)cc3c2cc1OC)OCO5 [Compound 20]
measuredTarget: recombinant human TDP1 (Homo sapiens, UniProt Q9NUW8)
IC50: > 111 µM

compound: CNCCOc1cc2c3cc(OC)c(OC)cc3c(=O)n(C)c2c2cc3c(cc12)OCO3 [Compound 12]
measuredTarget: recombinant human TDP1 (Homo sapiens, UniProt Q9NUW8)
IC50: > 111 µM

compound: COc1cc2c(=O)n(C)c3c4cc5c(cc4cc(OCCCN(C)C)c3c2cc1OC)OCO5 [Compound 35]
measuredTarget: recombinant human TDP1 (Homo sapiens, UniProt Q9NUW8)
IC50: 18 µM

For every listed record, write down its IC50.
1. COc1cc2c(=O)n(C)c3c4cc5c(cc4c(OCCNCCN(C)C)cc3c2cc1OC)OCO5 [Compound 22]
2. COc1cc2c(=O)n(C)c3c4cc5c(cc4cc(OCCN4CCOCC4)c3c2cc1OC)OCO5 [Compound 40]
3. COc1cc2c(=O)n(C)c3c4cc5c(cc4cc(OCCCO)c3c2cc1OC)OCO5 [Compound 42]
4. COc1cc2c(=O)n(C)c3c4cc5c(cc4c(OCCCn4ccnc4)cc3c2cc1OC)OCO5 [Compound 21]
5. COc1cc2c(=O)n(C)c3c4cc5c(cc4c(OCCCN4CCCCC4)cc3c2cc1OC)OCO5 [Compound 17]
6. COc1cc2c(=O)n(C)c3c4cc5c(cc4cc(OCCCN4CCOCC4)c3c2cc1OC)OCO5 [Compound 41]

Given back:
> 111 µM
> 111 µM
> 111 µM
> 111 µM
> 111 µM
> 111 µM

* * *

# measuredTarget: recombinant human TDP1 (Homo sapiens)
# testDescription: TDP1 gel-based inhibition assay
# Type: biochemical
Exercise: for every item that follows, state its recorded IC50.

Examples with answers:
structureNotation: COc1cc2c(=O)n(C)c3c4cc5c(cc4c(OCCN4CCN(C)CC4)cc3c2cc1OC)OCO5
measuredTarget: recombinant human TDP1 (Homo sapiens)
observationType: IC50
result: 37 to 111 µM

structureNotation: COc1cc2c(=O)n(C)c3c4cc5c(cc4cc(OCCCn4ccnc4)c3c2cc1OC)OCO5
measuredTarget: recombinant human TDP1 (Homo sapiens)
observationType: IC50
result: > 111 µM

structureNotation: COc1cc2c(=O)n(C)c3c4cc5c(cc4cc(OCCCN4CCCC4)c3c2cc1OC)OCO5
measuredTarget: recombinant human TDP1 (Homo sapiens)
observationType: IC50
result: 15 µM

Count: 2. Required value per item: IC50.
1. COc1cc2c(=O)n(C)c3c4cc5c(cc4cc(O)c3c2cc1OC)OCO5
2. COc1cc2c(=O)n(C)c3c4cc5c(cc4c(OCCN4CCCCC4)cc3c2cc1OC)OCO5

Given back:
> 111 µM
> 111 µM

Hi team, please reply with IC50 for each item in this list.
1. COc1cc2c(=O)n(C)c3c4cc5c(cc4c(OCCCN(C)C)cc3c2cc1OC)OCO5
2. COc1cc2c(=O)n(C)c3c4cc5c(cc4c(O)cc3c2cc1OC)OCO5
3. CCOC(=O)COc1cc2c3cc(OC)c(OC)cc3c(=O)n(C)c2c2cc3c(cc12)OCO3

Given back:
1: > 111 µM; 2: > 111 µM; 3: > 111 µM
